# Test Name: Stat Signaling Pathway (AID 446);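 note: ME-180 cervical cancer cells given 40 pM IL-6 alongside compound; SIE-controlled beta-lactamase reporter measured as 460/530 nm FRET emission ratio; % is set by controls: 0 for no effect and ±100 for the full control effect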
# Details: ME-180 (cervical carcinoma) SIE beta-lactamase reporter, IL-6 stimulated, 5 h; at 17.2 µM (top of the series) unless noted
# Protocol: NCGC Assay Overview: The IL-6/STAT signaling pathway was assayed in ME-180 cervical carcinoma cells by a beta-lactamase reporter gene controlled by a STAT Inducible Element (SIE). This reporter is induced by IL-6 at 40 pM AC50 and inhibited by the pan JAK inhibitor, 2-(1,1-Dimethylethyl)-9-fluoro-3,6-dihydro-7H-benz[h]-imidaz[4,5-f]isoquinolin-7-one, at approximately 10 nM AC50. Plated cells were incubated overnight and on the following day, stimulated with 40 pM IL-6 for 5 hrs. […]
Inconclusive results are not listed. Active and inactive are the calls of the source. Calls come from the whole dose curve; as a rule, active = well fitted curve in either direction with a large enough effect (not every such curve was filed as active); inconclusive = small, poorly fitted or top-dose-only effect, or another doubt; inactive = flat fitted curve, though single readings scatter.
Readout Name: activity, negative = inhibition

// worked examples, activity, negative = inhibition included
INSERT INTO measurements (molecule, readout_name, val) VALUES
  ('Cn1nnnc1-c1cc(Br)ccc1NC(=O)c1ccccc1', 'activity, negative = inhibition', '24.3% (inactive)'),
  ('COC(=O)c1[nH]c2cc(OC)ccc2c1NC(=O)CN1CCN(c2cccc(C)c2)C(C)C1 (stereo unspecified)', 'activity, negative = inhibition', '-21.4% (inactive)'),
  ('COC(=O)c1ccc(C2/C(=C(/O)c3ccc(OC)cc3)C(=O)C(=O)N2Cc2ccco2)cc1 (stereo unspecified)', 'activity, negative = inhibition', '-22.4% (inactive)'),
  ('O=c1c(F)cn(C2CCCO2)c(=O)n1Cc1ccccc1Cl (stereo unspecified)', 'activity, negative = inhibition', '11.6% (inactive)');

I have this molecule here, `CCCc1cc(NCCCCO)n2c(nc3ccccc32)c1C#N` , and I need its recorded activity, negative = inhibition.
-4.18% (inactive)

Form field: reported activity, negative = inhibition of CCc1ccc(NC(=O)CSC2=C(C#N)C(c3ccco3)C3=C(CCCC3=O)N2)cc1 (stereo unspecified)
-16.5% (inactive)

Reported activity, negative = inhibition for `Cn1c(=O)c2c3c(sc2n2c(SCC(=O)c4ccccc4)nnc12)COC(C)(C)C3` : what is it?
4.51% (inactive)

Consider the molecule shown here: CCCCc1ccc(NC(=O)CSC2=C(C#N)C(c3ccco3)C3=C(CCCC3=O)N2)cc1 (stereo unspecified) What is its recorded activity, negative = inhibition?
-23.6% (inactive)

What value of activity, negative = inhibition has been recorded for this entry: `Nc1ccc2cn[nH]c2c1`
6.7% (inactive)

Item CCOC(=O)c1[nH]c2cc3c(cc2c1NC(=O)CN1CCCCC1C)OCO3 (stereo unspecified) has what recorded activity, negative = inhibition?
-10.3% (inactive)

###

# Test system: CP297
# Test Name: qHTS profiling for inhibitors of Plasmodium falciparum proliferation (AID 504749); note: nearly all actives have a fitted effect of over 60% in size; note: potency is the fitted concentration of half-maximal effect
# Details: P. falciparum in erythrocytes, SYBR Green DNA, 72 h; series mostly up to 28.7 µM
Records with an inconclusive call do not appear. Calls of active or inactive are those of the source. The call rests on the fitted dose curve; in most records, active means well fitted inhibition curve with a large enough effect; inconclusive means small, poorly fitted or top-dose-only effect; inactive means flat fitted curve, though single readings scatter.
Readout Name: Potency

Use the examples below as a reference point.
INSERT INTO assay_data (compound, val) VALUES
  ('C[C@@H]1CC2C3CCC4=CC(=O)C=C[C@]4(C)[C@@]3(F)[C@@H](O)C[C@]2(C)[C@@]1(O)C(=O)COC(=O)c1cccc(S(=O)(=O)O)c1 (stereo not given in full)', 'inactive'),
  ('C#C[C@@]1(O)CC[C@@H]2[C@H]3CCC4=C/C(=N\O)CC[C@H]4[C@@H]3CC[C@]21CC', 'inactive'),
  ('CC(=O)CC(c1ccccc1)C1C(=O)Oc2ccccc2C1=O (stereo not given)', 'inactive'),
  ('CCCCCCCCCCCC(=O)OCC(O)C1OCC(O)C1O (stereo not given)', 'inactive'),
  ('CNC1CCc2cc(OC)c(OC)c(OC)c2-c2ccc(OC)c(=O)cc21 (stereo not given)', 'inactive');

Quick one: Potency of `C[C@H](O)[C@@H]1C(=O)N2C(C(=O)O)=C(SCCN=CN)C[C@@H]12` ?
inactive

Query (compound): `C=C1CC[C@H](O)C/C1=C/C=C1\CCC[C@]2(C)[C@@H]([C@H](C)CCCC(C)(C)O)CC[C@@H]12` ; field requested: Potency
13.5 µM (active)

Form field: reported Potency of CCOC(=O)C(CCc1ccccc1)NC(C)C(=O)N1Cc2cc(OC)c(OC)cc2CC1C(=O)O (stereo not given)
10.7 µM (active)

Return reported Potency; argument: CC(c1ncncc1F)[C@](O)(Cn1cncn1)c1ccc(F)cc1F (stereo not given in full)
inactive

So what does the record say about Potency for `C[S+](C)CC[C@H](N)C(=O)O` ?
inactive
